src = ChEMBL document CHEMBL4725292

target: Bromodomain-containing protein 4 (Homo sapiens, UniProt O60885, Y97A); assay: Displacement of Alexa Fluor 647 labelled ligand from His6-tagged BRD4 BD2 (1 to 477 residues)/BD1 Y97A mutant (unknown origin) after 30 mins by TR-FRET assay
pIC50: −log10 of the molar value.
recorded-metric: pIC50

>>> df
                                    compound  recorded_metric  censoring_qualifier  recorded_number
 0  Cc1cc2c(-c3ccco3)cnc(N[C@@H]3CCNC[C@H]3C(=O)NC3CCCCC3)c2[nH]c1=O            pIC50                    =             4.90
 1  Cc1cc2ccnc(N[C@@H]3CCNC[C@H]3C(=O)NCC3CC3)c2[nH]c1=O (mixture of isomers)            pIC50                    <             4.30
 2  Cc1cc2c(C3=CCOCC3)cnc(N[C@@H]3CCNC[C@H]3C(=O)NC3CCCCC3)c2[nH]c1=O (mixture of isomers)            pIC50                    =             4.40
 3  Cc1cc2c(C3=CCCCC3)cnc(N[C@@H]3CCNC[C@H]3C(=O)NC3CCCCC3)c2[nH]c1=O (mixture of isomers)            pIC50                    =             4.90
 4  Cc1cc2ccnc(N[C@@H]3CCNC[C@H]3C(=O)N[C@H]3CCCOC3)c2[nH]c1=O (mixture of isomers)            pIC50                    <             4.30
 5  Cc1cncc(-c2cnc(N[C@@H]3CCNC[C@H]3C(=O)NC3CCCCC3)c3[nH]c(=O)c(C)cc23)c1 (relative stereo)            pIC50                    <             4.30
 6  Cc1cc2ccnc(N[C@@H]3CCNC[C@@H]3C(=O)NC3CCCCC3)c2[nH]c1=O (relative stereo)            pIC50                    <             4.30
 7  Cc1cc2ccnc(N[C@@H]3CCNC[C@H]3C(=O)NC3CCCCC3)c2[nH]c1=O (racemic)            pIC50                    <             4.30
 8  Cc1cc2c(C3=CCCC3)cnc(N[C@@H]3CCNC[C@H]3C(=O)NC3CCCCC3)c2[nH]c1=O (mixture of isomers)            pIC50                    =             4.40
 9  Cc1ccc(-c2cnc(N[C@@H]3CCN(C)C[C@H]3C(=O)NC3CCCCC3)c3[nH]c(=O)c(C)cc23)o1            pIC50                    =             4.80
10  C/C=C/c1cnc(N[C@@H]2CCNC[C@H]2C(=O)NC2CCCCC2)c2[nH]c(=O)c(C)cc12 (racemic)            pIC50                    =             4.50
11  Cc1cc2c(-c3ccco3)cnc(N[C@H]3CCNC[C@@H]3C(=O)NC3CCCCC3)c2[nH]c1=O            pIC50                    =             5.00
12  Cc1ccc(-c2cnc(N[C@@H]3CCN(C)C[C@H]3C(=O)NC3CCCCC3)c3[nH]c(=O)c(C)cc23)s1            pIC50                    <             4.30
13  Cc1cc2c(-c3cnn(C)c3)cnc(N[C@@H]3CCN(C)C[C@H]3C(=O)NC3CCCCC3)c2[nH]c1=O            pIC50                    =             4.70
14  Cc1cc2c(-c3cnn(C)c3)cnc(N[C@@H]3CCNC[C@H]3C(=O)NC3CCCCC3)c2[nH]c1=O (mixture of isomers)            pIC50                    =             4.80

---

molecular target: Bromodomain testis-specific protein (Homo sapiens, UniProt Q58F21); assay: Binding affinity to human partial length BRDT bromodomain 1 (N21 to E137 residues) expressed in bacterial expression system by bromoscan assay
recorded-metric: Kd (µM)

>>> df
                                   compound  recorded_number
0  Cc1cc2c(-c3ccco3)cnc(N[C@@H]3CCN(C)C[C@H]3C(=O)NC3CCCCC3)c2[nH]c1=O [GSK789]             0.02

---

Here, each record is paired with measured Papp at 3 h data.
assay: Permeability of the compound in pH 7.4 phosphate buffer measured after 3 hrs by artificial membrane permeability assay based HPLC analysis; type: ADME; details: PAMPA, pH 7.4, read-out: permeability
recorded-metric: Papp at 3 h (×10⁻⁶ cm/s)

>>> print(df.to_string())
                                   compound  censoring_qualifier  recorded_number
0  Cc1cc2c(-c3ccco3)cnc(N[C@@H]3CCNC[C@H]3C(=O)NC3CCCCC3)c2[nH]c1=O (racemic)                    =              3.8
1  Cc1cc2c(-c3ccco3)ccc(N[C@@H]3CCNC[C@H]3C(=O)NC3CCCCC3)c2[nH]c1=O (racemic)                    <                1
2  Cc1cc2cccc(N[C@@H]3CCNC[C@H]3C(=O)NC3CCCCC3)c2[nH]c1=O (racemic)                    <              0.3
3  Cc1cc2ccnc(N[C@@H]3CCNC[C@H]3C(=O)NC3CCCCC3)c2[nH]c1=O (racemic)                    <              0.3
4  Cc1cc2c(-c3ccco3)cnc(N[C@@H]3CCN(C)C[C@H]3C(=O)NC3CCCCC3)c2[nH]c1=O                    =               19

---

molecular target: Transcription initiation factor TFIID subunit 1 (Homo sapiens); assay: Binding affinity to full length TAF1 in human HuT78 cell lysates incubated for 45 mins by liquid chromatography-mass spectrometry based chemoproteomic binding assay; assay type: subcellular
Sequence (P21675 whole entry): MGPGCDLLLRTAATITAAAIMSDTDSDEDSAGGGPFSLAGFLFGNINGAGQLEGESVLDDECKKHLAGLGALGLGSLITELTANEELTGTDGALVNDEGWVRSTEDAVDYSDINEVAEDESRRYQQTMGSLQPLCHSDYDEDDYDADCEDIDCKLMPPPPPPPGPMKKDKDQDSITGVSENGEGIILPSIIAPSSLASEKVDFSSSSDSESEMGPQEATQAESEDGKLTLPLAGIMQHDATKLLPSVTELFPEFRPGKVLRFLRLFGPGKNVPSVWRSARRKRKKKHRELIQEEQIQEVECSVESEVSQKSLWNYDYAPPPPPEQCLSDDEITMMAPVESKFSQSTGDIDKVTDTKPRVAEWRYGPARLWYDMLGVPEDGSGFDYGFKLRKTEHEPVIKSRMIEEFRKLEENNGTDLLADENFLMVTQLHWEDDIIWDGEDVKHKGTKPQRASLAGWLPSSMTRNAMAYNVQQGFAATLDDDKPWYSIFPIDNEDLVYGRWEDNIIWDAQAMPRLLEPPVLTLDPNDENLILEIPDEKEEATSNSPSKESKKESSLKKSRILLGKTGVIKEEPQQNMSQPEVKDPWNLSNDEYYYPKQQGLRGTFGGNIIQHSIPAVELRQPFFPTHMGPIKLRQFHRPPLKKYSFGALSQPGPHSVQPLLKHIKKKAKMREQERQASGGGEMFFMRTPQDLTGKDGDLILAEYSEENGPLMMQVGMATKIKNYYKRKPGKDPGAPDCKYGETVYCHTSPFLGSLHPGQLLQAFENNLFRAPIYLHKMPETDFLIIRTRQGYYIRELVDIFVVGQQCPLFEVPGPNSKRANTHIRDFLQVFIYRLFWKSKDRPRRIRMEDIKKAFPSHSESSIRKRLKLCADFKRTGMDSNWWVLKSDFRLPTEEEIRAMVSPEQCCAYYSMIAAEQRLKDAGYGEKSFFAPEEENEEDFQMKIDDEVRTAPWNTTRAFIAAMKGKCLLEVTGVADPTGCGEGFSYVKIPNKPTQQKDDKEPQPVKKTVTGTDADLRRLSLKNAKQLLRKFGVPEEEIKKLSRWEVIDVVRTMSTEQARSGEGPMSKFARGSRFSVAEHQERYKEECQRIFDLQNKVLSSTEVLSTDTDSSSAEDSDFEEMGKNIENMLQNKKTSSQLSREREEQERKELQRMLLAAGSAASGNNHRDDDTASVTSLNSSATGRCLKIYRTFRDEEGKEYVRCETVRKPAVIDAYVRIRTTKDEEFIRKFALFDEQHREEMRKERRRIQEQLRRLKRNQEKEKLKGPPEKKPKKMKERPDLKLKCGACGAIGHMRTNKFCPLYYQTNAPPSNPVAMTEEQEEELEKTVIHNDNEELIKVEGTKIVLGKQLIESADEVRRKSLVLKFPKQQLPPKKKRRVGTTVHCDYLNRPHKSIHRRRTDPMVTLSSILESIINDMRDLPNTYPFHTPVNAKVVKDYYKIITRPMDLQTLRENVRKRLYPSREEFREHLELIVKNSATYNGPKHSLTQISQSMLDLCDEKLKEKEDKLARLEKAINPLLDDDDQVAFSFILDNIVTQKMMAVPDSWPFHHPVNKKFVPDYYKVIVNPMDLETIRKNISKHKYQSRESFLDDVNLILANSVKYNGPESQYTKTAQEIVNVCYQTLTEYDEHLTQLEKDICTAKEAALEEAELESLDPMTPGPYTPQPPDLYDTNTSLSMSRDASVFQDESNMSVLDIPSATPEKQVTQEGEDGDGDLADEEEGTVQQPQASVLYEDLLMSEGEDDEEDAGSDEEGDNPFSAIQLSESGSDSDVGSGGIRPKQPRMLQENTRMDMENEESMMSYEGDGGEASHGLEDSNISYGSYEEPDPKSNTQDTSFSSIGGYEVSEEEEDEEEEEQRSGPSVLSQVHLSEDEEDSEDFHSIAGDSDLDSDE
pIC50: −log10 of the molar value.
recorded-metric: pIC50

                                   compound  result
0  Cc1cc2c(-c3ccco3)cnc(N[C@@H]3CCN(C)C[C@H]3C(=O)NC3CCCCC3)c2[nH]c1=O [GSK789]  < 5.00

---

Form field: Selectivity Index (one value per entry).
system: Bromodomain-containing protein 4 (Homo sapiens), O60885 [UNDEFINED MUTATION]; test: Selectivity index, […] for His6-thr-tagged BRD4 BD1 (1 to 477 residues)/BD2 Y390A mutant (unknown origin) to pIC50 for His6-tagged BRD4 BD2 (1 to 477 residues)/BD1 Y97A mutant (unknown origin)
recorded-metric: Selectivity Index

>>> df
                                    molecule  censoring_qualifier  recorded_number
 0  Cc1cc2c(C3=CCCC3)cnc(N[C@@H]3CCNC[C@H]3C(=O)NC3CCCCC3)c2[nH]c1=O (mixture of isomers)                    =              200
 1  C/C=C/c1cnc(N[C@@H]2CCNC[C@H]2C(=O)NC2CCCCC2)c2[nH]c(=O)c(C)cc12 (racemic)                    =              250
 2  Cc1coc(-c2cnc(N[C@@H]3CCN(C)C[C@H]3C(=O)NC3CCCCC3)c3[nH]c(=O)c(C)cc23)c1                    =              501
 3  Cc1cc2ccnc(N[C@@H]3CCNC[C@H]3C(=O)NCC3CCCC3)c2[nH]c1=O (mixture of isomers)                    >               30
 4  CO[C@@H](C)CNC(=O)[C@@H]1CNCC[C@H]1Nc1nccc2cc(C)c(=O)[nH]c12 (mixture of isomers)                    =                4
 5  Cc1cc2c(-c3ccoc3)cnc(N[C@@H]3CCNC[C@H]3C(=O)NC3CCCCC3)c2[nH]c1=O (mixture of isomers)                    =              316
 6  Cc1cc2ccnc(N[C@@H]3CCNC[C@H]3C(=O)N[C@H]3CCCOC3)c2[nH]c1=O (mixture of isomers)                    >                2
 7  Cc1cc2c(C3=CCCCC3)cnc(N[C@@H]3CCNC[C@H]3C(=O)NC3CCCCC3)c2[nH]c1=O (mixture of isomers)                    =               10
 8  Cc1cc2ccnc(N[C@@H]3CCNC[C@H]3C(=O)N[C@H](C)C(C)C)c2[nH]c1=O (relative stereo)                    >               10
 9  Cc1cc2ccnc(N[C@@H]3CCNC[C@H]3C(=O)NCC3CC3)c2[nH]c1=O (mixture of isomers)                    >               15
10  Cc1cc2c(-c3cnn(C)c3)cnc(N[C@@H]3CCNC[C@H]3C(=O)NC3CCCCC3)c2[nH]c1=O (mixture of isomers)                    =              100
11  Cc1cc2ccnc(N[C@@H]3CCNC[C@H]3C(=O)NC3CCCC3)c2[nH]c1=O (relative stereo)                    =               15
12  Cc1cncc(-c2cnc(N[C@@H]3CCNC[C@H]3C(=O)NC3CCCCC3)c3[nH]c(=O)c(C)cc23)c1 (relative stereo)                    >               40
13  Cc1ccsc1-c1cnc(N[C@@H]2CCN(C)C[C@H]2C(=O)NC2CCCCC2)c2[nH]c(=O)c(C)cc12 (relative stereo)                    =              316
14  Cc1csc(-c2cnc(N[C@@H]3CCN(C)C[C@H]3C(=O)NC3CCCCC3)c3[nH]c(=O)c(C)cc23)c1                    =              316
15  Cc1cc2ccnc(N[C@@H]3CCNC[C@H]3C(=O)NC3CCOCC3)c2[nH]c1=O (mixture of isomers)                    =                5
16  Cc1ccc(-c2cnc(N[C@@H]3CCN(C)C[C@H]3C(=O)NC3CCCCC3)c3[nH]c(=O)c(C)cc23)s1                    >              794
17  Cc1cc2c(-c3cnn(C)c3)cnc(N[C@@H]3CCN(C)C[C@H]3C(=O)NC3CCCCC3)c2[nH]c1=O                    =              251
18  Cc1ccc(-c2cnc(N[C@@H]3CCN(C)C[C@H]3C(=O)NC3CCCCC3)c3[nH]c(=O)c(C)cc23)o1                    =              631
19  Cc1cc2cccc(N[C@@H]3CCNC[C@H]3C(=O)NC3CCCCC3)c2[nH]c1=O (racemic)                    =               10
20  Cc1cc2c(-c3ccccc3)cnc(N[C@@H]3CCNC[C@H]3C(=O)NC3CCCCC3)c2[nH]c1=O (mixture of isomers)                    =               40
21  Cc1ccoc1-c1cnc(N[C@@H]2CCN(C)C[C@H]2C(=O)NC2CCCCC2)c2[nH]c(=O)c(C)cc12                    =              316
22  Cc1cc2c(-c3cccs3)cnc(N[C@@H]3CCN(C)C[C@H]3C(=O)NC3CCCCC3)c2[nH]c1=O                    =              251
23  Cc1cc2ccnc(N[C@@H]3CCNC[C@H]3C(=O)N[C@@H]3CCCOC3)c2[nH]c1=O (mixture of isomers)                    >               10
